B1: FAM9B (parent)
chain: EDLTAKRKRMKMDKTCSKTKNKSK

Variants of: B1
method_summary: protein stability index of a GFP-peptide fusion (GPS, HEK-293T) (PSI 1-6); higher = more stable;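 also: lentivirally expressed fusions sorted by FACS into six bins by GFP to DsRed ratio, PSI derived from sequencing read proportions per bin multiplied by bin number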
details: c terminus: a fixed tail appended

[
  {
    "variant_key": "E1C",
    "protein stability index": 3.08
  },
  {
    "variant_key": "M12N",
    "protein stability index": 4.67
  },
  {
    "variant_key": "K8C",
    "protein stability index": 5.09
  },
  {
    "variant_key": "R7A",
    "protein stability index": 5.09
  }
]
